Measured values drawn from ChEMBL document CHEMBL4513216 for this set.

Parameter: INHIBITION. Scope: all listed entries.
Test system: Plasmodium berghei
Assay: Screen against P. berghei liver stage (PbLuc), transformed with Luciferase, at 10uM
Assay type: functional, HepG2
Details: tested at 10 uM
Among all 69,000 compounds or so, about 8,600 (12%) showed an effect of 50% or more. The entries come from a sample that favours strong results as a whole.

{"columns": ["compound", "measurement_target", "unit", "INHIBITION"],
 "data": [
  ["O=C(N[C@@H]1CN(C2CCCC2)C[C@@H]2CCCO[C@@H]21)c1cnccn1", "Plasmodium berghei", "%", -45.5],
  ["Cc1ccccc1S(=O)(=O)NC(=O)C1(c2ccccc2)CCC1", "Plasmodium berghei", "%", 35.2],
  ["CCc1n[nH]c(C2CN(C(=O)c3cnc(C)nc3CC)CCO2)n1 (stereo unspecified)", "Plasmodium berghei", "%", -49.5],
  ["CCc1nc(C2CCCN2C(=O)CCc2nc(C(C)(C)C)no2)no1 (stereo unspecified)", "Plasmodium berghei", "%", 40.2],
  ["COc1ccc(CCn2cnc(C#N)n2)cc1", "Plasmodium berghei", "%", -7.46],
  ["Cc1nc(-c2ccc(S(=O)(=O)N3CCSCC3)cc2)co1", "Plasmodium berghei", "%", 49.4],
  ["COCc1nc(-c2ccc(S(=O)(=O)N3CCCC3)cc2)cs1", "Plasmodium berghei", "%", 61],
  ["COCCNC(=O)c1cc(S(=O)(=O)N2CCCCC2)cs1", "Plasmodium berghei", "%", -4.86],
  ["CNC(=O)[C@@H]1C[C@H]2CN(C(=O)c3ccco3)C[C@H]2N1C(C)C", "Plasmodium berghei", "%", 16.4],
  ["Cc1nnc(NC(=O)CN2CCc3c(nc(C4CC4)n3C)C2)s1", "Plasmodium berghei", "%", 14.4],
  ["COCCCc1nc(-c2ccc(S(=O)(=O)N3CCCC3)cc2)cs1", "Plasmodium berghei", "%", 61]
]}
